The origin of these recorded values is ChEMBL document CHEMBL5046215.

target: C-X-C motif chemokine 10 (Homo sapiens); experiment: Binding affinity to human CXCL10 at 100 uM by glycan microarray analysis
Task for the reader: assign each of the following compounds its reported Activity.
Answers are plain numbers, in %.

- structure: "NCCOCCO[C@@H]1O[C@@H](C(=O)O)[C@@H](O[C@@H]2O[C@@H](C(=O)O)[C@@H](O)[C@H](O)[C@H]2O)[C@H](O)[C@H]1O"
  observedValue: 45

Please supply Activity for each of the following items, keeping them in order.
1. NCCOCCO[C@@H]1O[C@@H](C(=O)O)[C@@H](O[C@@H]2O[C@@H](C(=O)O)[C@@H](O[C@@H]3O[C@@H](C(=O)O)[C@@H](OS(=O)(=O)O)[C@H](O)[C@H]3O)[C@H](O)[C@H]2O)[C@H](O)[C@H]1O
2. NCCOCCO[C@@H]1O[C@@H](C(=O)O)[C@@H](O[C@@H]2O[C@@H](C(=O)O)[C@@H](O[C@@H]3O[C@@H](C(=O)O)[C@@H](O)[C@H](O)[C@H]3O)[C@H](O)[C@H]2O)[C@H](O)[C@H]1O
3. NCCOCCO[C@@H]1O[C@@H](C(=O)O)[C@@H](O[C@@H]2O[C@@H](C(=O)O)[C@@H](OS(=O)(=O)O)[C@H](O)[C@H]2O)[C@H](O)[C@H]1O

**Result**
78
24
67
